These entries and their values trace back to paper PMC9186362.

# Tested on: RPE1 cell line
# ASSAY_EXPLANATION: Cell viability MTS assay, dose-response
# Assay type: cell-based
# MEASUREMENT_CONTEXT: Homo sapiens, RPE-1; 48 h, MTS assay in triplicate, doses up to 50 µM
OBSERVATION_TYPE: EC50 (µM)
Answer in µM, number only, no unit symbol.

Check out these entries, answers already filled in.
In: For the record O=c1[nH]c2ccc(O)cc2c2c1[nH]c1ccccc12 , what value of EC50 is listed for RPE1 cell line?
Out: 7.3

In: Recorded EC50 for COc1ccc2c(c1)[nH]c(=O)c1[nH]c3ccc(OC)cc3c12 with RPE1 cell line, please?
Out: 20.8

In: Find the measured EC50: item O=c1[nH]c2ccc(O)cc2c2c1[nH]c1ccc(F)cc12 , target or system RPE1 cell line.
Out: 19.1

Continuing:
In: // map COc1ccc2[nH]c3c(=O)[nH]c4ccc(O)cc4c3c2c1 to recorded EC50 (system: RPE1 cell line)
Out: 10.7

====

# MEASUREMENT_TARGET: HsCdk5/p25 (Homo sapiens)
# Sequence (Q00535 whole entry): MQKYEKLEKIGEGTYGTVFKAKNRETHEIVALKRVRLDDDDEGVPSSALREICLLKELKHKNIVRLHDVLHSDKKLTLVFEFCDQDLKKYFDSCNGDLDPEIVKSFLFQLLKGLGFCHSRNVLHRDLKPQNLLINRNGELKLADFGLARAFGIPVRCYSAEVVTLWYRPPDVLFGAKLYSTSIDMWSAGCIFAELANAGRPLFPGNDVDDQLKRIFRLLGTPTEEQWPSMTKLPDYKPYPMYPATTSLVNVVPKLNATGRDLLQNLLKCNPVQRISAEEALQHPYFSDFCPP
# Sequence (Q15078 99-307 partner limits assumed): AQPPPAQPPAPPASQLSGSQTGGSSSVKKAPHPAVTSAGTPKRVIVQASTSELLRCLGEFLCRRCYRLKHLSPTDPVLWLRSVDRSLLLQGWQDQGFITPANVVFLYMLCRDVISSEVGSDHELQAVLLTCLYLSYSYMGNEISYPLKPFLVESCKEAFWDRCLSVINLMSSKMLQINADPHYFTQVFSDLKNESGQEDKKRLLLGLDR
# ASSAY_EXPLANATION: ADP-Glo kinase assay
# Type: biochemical, Homo sapiens (Hs)
# MEASUREMENT_CONTEXT: mean n = 2, % of maximum activity of DMSO control, read-out: % Residual activity at 1 μM CDK5
# Experimental: Kinase activities were determined using the ADP-Glo methodology (ADP-Glo Kinase Assay; Promega) according to the assay described by Nguyen et al.[32] except for MmCLK1. The later was assayed in the following buffer: 10 mM MgCl2, 1 mM EGTA, 1 mM DTT, 25 mM Tris-HCl pH 7.5, 50 µg/ml heparin, 0.15 mg/ml BSA, with 0.027 µg/µl of the following peptide: GRSRSRSRSRSR as substrate.
OBSERVATION_TYPE: remaining activity at 1 µM
Respond with the figure and its unit, in that order.

In: Requested read-out: remaining activity at 1 µM. Entry: COc1ccc2c(c1)[nH]c1c(=O)[nH]c3ccc(OC)cc3c12
Out: 51%

In: For COc1ccc2[nH]c(=O)c3[nH]c4ccc(F)cc4c3c2c1 , what is its reported remaining activity at 1 µM?
Out: 100%

In: State the recorded remaining activity at 1 µM for this entry: COc1ccc2c(c1)[nH]c(=O)c1[nH]c3ccc(OC)cc3c12
Out: 81%

In: Given O=c1[nH]c2ccccc2c2c1[nH]c1ccccc12 , state its recorded remaining activity at 1 µM.
Out: 100%

Field: next compound
In: Fill blank: measured remaining activity at 1 µM of the compound COc1ccc2c(c1)[nH]c1c(=O)[nH]c3ccccc3c12 is ____.
Out: 55%

====

OBSERVATION_TYPE: melting point

Examples from the recorded data:
In: Fill blank: measured melting point of the compound COc1ccc2c(c1)c1c3cc(N(C)C)ccc3[nH]c(=O)c1n2C is ____.
Out: 231 to 234 °C

In: Recorded melting point of COc1ccc2[nH]c3c(=O)[nH]c4cc(OC)c(OC)cc4c3c2c1 , please.
Out: 205 to 208 °C

Next:
In: State the recorded melting point for this entry: O=c1[nH]c2cc(O)ccc2c2c1[nH]c1ccccc12
Out: 238 to 240 °C (dec.)

In: Returns the measured melting point for the input compound. Input: COc1ccc2c(c1)c1c3cc(O)ccc3[nH]c(=O)c1n2C
Out: > 250 °C

In: Query: melting point; subject: COc1ccc2c(c1)[nH]c1c(=O)[nH]c3ccc(OC)cc3c12
Out: 235 to 237 °C

In: Name the recorded melting point for COc1ccc2[nH]c(=O)c3[nH]c4ccc(F)cc4c3c2c1 .
Out: 135 to 136 °C

In: Consider the compound COc1ccc2[nH]c3c(=O)[nH]c4ccc(N)cc4c3c2c1 and give its measured melting point.
Out: > 250 °C

In: Item under review: O=c1[nH]c2ccc(O)cc2c2c1[nH]c1ccc(F)cc12 . Reported melting point?
Out: 240 to 243 °C

In: Form field: reported melting point of COc1ccc2[nH]c3c(=O)[nH]c4ccc(NC(C)=O)cc4c3c2c1
Out: 242 to 245 °C
